target: Quadruplex DNA; test: Binding affinity to mito 0.5-16 G4 DNA (unknown origin) assessed as dissociation constant measured upto 150 secs by isothermal titration calorimetry assay; format: nucleic-acid assay
measurement.label: pKd
Give bare numbers, as −log10 of the molar value.

# value of pKd, Quadruplex DNA, item C(=C\c1ccc2ccccc2[n+]1CCCCCCCC[n+]1c(/C=C/c2ccc(N3CCCCC3)cc2)ccc2ccccc21)/c1ccc(N2CCCCC2)cc1.[I-].[I-] = 7.22

====

Please go through the items and note down their Kd.
target: Quadruplex DNA; experiment: Binding affinity to mito 29 G4 DNA (unknown origin) assessed as dissociation constant measured upto 450 secs by surface plasmon resonance assay; assay type: nucleic-acid assay
Answers are plain numbers, in nM.

Check out these entries, answers already filled in.
CCn1c2ccccc2c2cc(/C=C/c3ccc4ccccc4[n+]3CCCCCCCC[n+]3c(/C=C/c4ccc5c(c4)c4ccccc4n5CC)ccc4ccccc43)ccc21; 210
C(=C\c1ccc2ccccc2[n+]1CCCCCCCC[n+]1c(/C=C/c2ccc(N3CCCC3)cc2)ccc2ccccc21)/c1ccc(N2CCCC2)cc1; 150

# compound CSc1ccc(/C=C/c2ccc3ccccc3[n+]2CCCCCCCC[n+]2c(/C=C/c3ccc(SC)cc3)ccc3ccccc32)cc1 ; its Kd = 340

====

biological target: Quadruplex DNA; assay: Binding affinity to mito 0.5-16 G4 DNA (unknown origin) assessed as dissociation constant measured upto 450 secs by surface plasmon resonance assay; type: nucleic-acid assay
measurement.label: pKd
One number for each entry, as −log10 of the molar value.

CCn1c2ccccc2c2cc(/C=C/c3ccc4ccccc4[n+]3CCCCCCCC[n+]3c(/C=C/c4ccc5c(c4)c4ccccc4n5CC)ccc4ccccc43)ccc21; 6.02
C(=C\c1ccc2ccccc2[n+]1CCCCCCCC[n+]1c(/C=C/c2c[nH]c3ccccc23)ccc2ccccc21)/c1c[nH]c2ccccc12; 6.60
C(=C\c1ccc2ccccc2[n+]1CCCCCCCC[n+]1c(/C=C/c2ccc(N3CCCC3)cc2)ccc2ccccc21)/c1ccc(N2CCCC2)cc1; 6.39
CN(C)c1ccc(/C=C/c2ccc3ccccc3[n+]2CCCCCCCC[n+]2c(/C=C/c3ccc(N(C)C)cc3)ccc3ccccc32)cc1; 6.96

Okay, here is my list. What is pKd for each of these?
1. C(=C\c1ccc2ccccc2[n+]1CCCCCCCC[n+]1c(/C=C/c2ccccc2)ccc2ccccc21)/c1ccccc1
2. CSc1ccc(/C=C/c2ccc3ccccc3[n+]2CCCCCCCC[n+]2c(/C=C/c3ccc(SC)cc3)ccc3ccccc32)cc1

1: 5.99; 2: 6.82

====

molecular target: Quadruplex DNA; test: Binding affinity to mito 78 G4 DNA (unknown origin) assessed as dissociation constant measured upto 450 secs by surface plasmon resonance assay; format: nucleic-acid assay
Provide the reported log10 of Kd of each item.
Log10 applied to Kd; unit prior to transform: nM.

C(=C\c1ccc2ccccc2[n+]1CCCCCCCC[n+]1c(/C=C/c2cc3ccccc3[nH]2)ccc2ccccc21)/c1cc2ccccc2[nH]1; 3.26
Cc1ccc(/C=C/c2ccc3ccccc3[n+]2CCCCCCCC[n+]2c(/C=C/c3ccc(C)cc3)ccc3ccccc32)cc1; 1.85
C(=C\c1ccc2ccccc2[n+]1CCCCCCCC[n+]1c(/C=C/c2c[nH]c3ccccc23)ccc2ccccc21)/c1c[nH]c2ccccc12; 1.90
C(=C\c1ccc2ccccc2[n+]1CCCCCCCC[n+]1c(/C=C/c2ccc(N3CCCCC3)cc2)ccc2ccccc21)/c1ccc(N2CCCCC2)cc1.[I-].[I-]; 1.60

Okay, here is my list. What is log10 of Kd for each of these?
1. C(=C\c1ccc2ccccc2[n+]1CCCCCCCC[n+]1c(/C=C/c2ccc(N3CCCC3)cc2)ccc2ccccc21)/c1ccc(N2CCCC2)cc1
2. CN(C)c1ccc(/C=C/c2ccc3ccccc3[n+]2CCCCCCCC[n+]2c(/C=C/c3ccc(N(C)C)cc3)ccc3ccccc32)cc1

[2.11, 1.48]

====

Give Kd for every item shown.
target: DNA; assay: Binding affinity to HP19 DNA (non-G4 DNA) (unknown origin) assessed as dissociation constant measured upto 450 secs by surface plasmon resonance assay; format: nucleic-acid assay

// below: answered compounds
CCn1c2ccccc2c2cc(/C=C/c3ccc4ccccc4[n+]3CCCCCCCC[n+]3c(/C=C/c4ccc5c(c4)c4ccccc4n5CC)ccc4ccccc43)ccc21; > 2000 nM
C(=C\c1ccc2ccccc2[n+]1CCCCCCCC[n+]1c(/C=C/c2ccc(N3CCCCC3)cc2)ccc2ccccc21)/c1ccc(N2CCCCC2)cc1.[I-].[I-]; > 2000 nM

Alright, here's another compound for you.
The recorded Kd for C(=C\c1ccc2ccccc2[n+]1CCCCCCCC[n+]1c(/C=C/c2ccccc2)ccc2ccccc21)/c1ccccc1 is > 2000 nM

====

assay: Antiproliferative activity against human HFF-1 cells measured after 48 hrs by MTT assay; assay type: toxicity, cell-based; conditions: HFF-1 cells
IC50 at 48 h strictly less than 30 µM = condition met. Otherwise condition not met.

C(=C\c1ccc2ccccc2[n+]1CCCCCCCC[n+]1c(/C=C/c2c[nH]c3ccccc23)ccc2ccccc21)/c1c[nH]c2ccccc12; condition not met
CSc1ccc(/C=C/c2ccc3ccccc3[n+]2CCCCCCCC[n+]2c(/C=C/c3ccc(SC)cc3)ccc3ccccc32)cc1; condition not met
C(=C\c1ccc2ccccc2[n+]1CCCCCCCC[n+]1c(/C=C/c2cc3ccccc3[nH]2)ccc2ccccc21)/c1cc2ccccc2[nH]1; condition not met
C(=C\c1ccc2ccccc2[n+]1CCCCCCCC[n+]1c(/C=C/c2ccc(N3CCCC3)cc2)ccc2ccccc21)/c1ccc(N2CCCC2)cc1; condition not met
C(=C\c1ccc2ccccc2[n+]1CCCCCCCC[n+]1c(/C=C/c2ccc(N3CCCCC3)cc2)ccc2ccccc21)/c1ccc(N2CCCCC2)cc1.[I-].[I-]; condition not met
C(=C\c1ccc2ccccc2[n+]1CCCCCCCC[n+]1c(/C=C/c2ccccc2)ccc2ccccc21)/c1ccccc1; condition met

Quick check: does C(=C\c1ccc2ccccc2[n+]1CCCCCCCC[n+]1c(/C=C/c2ccc(N3CCOCC3)cc2)ccc2ccccc21)/c1ccc(N2CCOCC2)cc1 have IC50 at 48 h under 30 µM? condition not met

Confirm or reject: IC50 at 48 h of CN(C)c1ccc(/C=C/c2ccc3ccccc3[n+]2CCCCCCCC[n+]2c(/C=C/c3ccc(N(C)C)cc3)ccc3ccccc32)cc1 lies strictly below 30 µM condition met

Is IC50 at 48 h strictly under 30 µM for the entry Cc1ccc(/C=C/c2ccc3ccccc3[n+]2CCCCCCCC[n+]2c(/C=C/c3ccc(C)cc3)ccc3ccccc32)cc1 ? condition not met

A record lists CCn1c2ccccc2c2cc(/C=C/c3ccc4ccccc4[n+]3CCCCCCCC[n+]3c(/C=C/c4ccc5c(c4)c4ccccc4n5CC)ccc4ccccc43)ccc21 . Is its IC50 at 48 h below 30 µM? condition not met

====

molecular target: Quadruplex DNA; assay: Binding affinity to mito 0.5-16 G4 DNA (unknown origin) assessed as dissociation constant measured upto 450 secs by surface plasmon resonance assay; assay type: nucleic-acid assay
measurement.label: pKd
Answers are plain numbers, as −log10 of the molar value.

C(=C\c1ccc2ccccc2[n+]1CCCCCCCC[n+]1c(/C=C/c2ccc(N3CCCCC3)cc2)ccc2ccccc21)/c1ccc(N2CCCCC2)cc1.[I-].[I-]; 6.54
C(=C\c1ccc2ccccc2[n+]1CCCCCCCC[n+]1c(/C=C/c2ccc(N3CCOCC3)cc2)ccc2ccccc21)/c1ccc(N2CCOCC2)cc1; 6.55

The measured pKd associated with Cc1ccc(/C=C/c2ccc3ccccc3[n+]2CCCCCCCC[n+]2c(/C=C/c3ccc(C)cc3)ccc3ccccc32)cc1 reads 5.93

====

Hi there, I'd appreciate the recorded pIC50 for every entry that follows.
test system: PANC-1; experiment: Antiproliferative activity against human PANC-1 cells measured after 48 hrs by MTT assay; type: functional, cell-based; details: PANC-1, 48 h
pIC50: −log10 of the molar value.

Solved cases below.
C(=C\c1ccc2ccccc2[n+]1CCCCCCCC[n+]1c(/C=C/c2ccc(N3CCCC3)cc2)ccc2ccccc21)/c1ccc(N2CCCC2)cc1; 4.69
C(=C\c1ccc2ccccc2[n+]1CCCCCCCC[n+]1c(/C=C/c2cc3ccccc3[nH]2)ccc2ccccc21)/c1cc2ccccc2[nH]1; < 4.40
Cc1ccc(/C=C/c2ccc3ccccc3[n+]2CCCCCCCC[n+]2c(/C=C/c3ccc(C)cc3)ccc3ccccc32)cc1; < 4.40
CSc1ccc(/C=C/c2ccc3ccccc3[n+]2CCCCCCCC[n+]2c(/C=C/c3ccc(SC)cc3)ccc3ccccc32)cc1; < 4.40
C(=C\c1ccc2ccccc2[n+]1CCCCCCCC[n+]1c(/C=C/c2ccccc2)ccc2ccccc21)/c1ccccc1; < 4.40
CCn1c2ccccc2c2cc(/C=C/c3ccc4ccccc4[n+]3CCCCCCCC[n+]3c(/C=C/c4ccc5c(c4)c4ccccc4n5CC)ccc4ccccc43)ccc21; < 4.40
C(=C\c1ccc2ccccc2[n+]1CCCCCCCC[n+]1c(/C=C/c2ccc(N3CCOCC3)cc2)ccc2ccccc21)/c1ccc(N2CCOCC2)cc1; < 4.40
C(=C\c1ccc2ccccc2[n+]1CCCCCCCC[n+]1c(/C=C/c2c[nH]c3ccccc23)ccc2ccccc21)/c1c[nH]c2ccccc12; < 4.40
C(=C\c1ccc2ccccc2[n+]1CCCCCCCC[n+]1c(/C=C/c2ccc(N3CCCCC3)cc2)ccc2ccccc21)/c1ccc(N2CCCCC2)cc1.[I-].[I-]; 4.61

Measured pIC50, CN(C)c1ccc(/C=C/c2ccc3ccccc3[n+]2CCCCCCCC[n+]2c(/C=C/c3ccc(N(C)C)cc3)ccc3ccccc32)cc1 : < 4.40
